Target: UniProtKB P27338
Sequence (P27338 whole entry): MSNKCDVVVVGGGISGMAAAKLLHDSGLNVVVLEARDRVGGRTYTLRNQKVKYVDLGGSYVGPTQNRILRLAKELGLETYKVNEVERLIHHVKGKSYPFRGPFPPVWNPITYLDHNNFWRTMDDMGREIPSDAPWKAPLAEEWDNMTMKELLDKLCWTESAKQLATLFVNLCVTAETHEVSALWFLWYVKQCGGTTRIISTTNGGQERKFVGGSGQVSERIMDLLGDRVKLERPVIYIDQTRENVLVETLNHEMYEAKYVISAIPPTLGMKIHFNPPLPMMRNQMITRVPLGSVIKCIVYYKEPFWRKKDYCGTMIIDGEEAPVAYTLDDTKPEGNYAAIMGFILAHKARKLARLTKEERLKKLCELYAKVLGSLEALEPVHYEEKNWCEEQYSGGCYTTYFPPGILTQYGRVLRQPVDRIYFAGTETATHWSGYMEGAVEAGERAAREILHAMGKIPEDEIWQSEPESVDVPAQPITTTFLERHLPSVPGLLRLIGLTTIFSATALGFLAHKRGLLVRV
Test: Inhibition of human MAO-B at 10 uM by fluorescence assay
# inhibition at 10 µM per record follows
Report as a plain number; the unit % is understood.

Task item: Which value of inhibition at 10 µM has been reported for CCCCC1OC(=O)c2cc(OCc3cccc(CN4CCN(C)CC4)c3O)ccc21 (centres undefined) in the records?
Reply: 32.3

Task item: Fill in: inhibition at 10 µM of CCCCC1OC(=O)c2cc(OCc3cccc(CN4CCCCC4)c3O)ccc21 (centres undefined) is ___
Reply: 12.8

Task item: Recorded inhibition at 10 µM of CCCCC1OC(=O)c2cc(OCc3cccc(CN(CC)Cc4ccccc4)c3O)ccc21 (centres undefined) , please.
Reply: 12.5

// below: inhibition at 10 µM requested for another molecule
Task item: Recorded inhibition at 10 µM for CCCCC1OC(=O)c2cc(OCc3cccc(CN(CC)CC)c3O)ccc21 (centres undefined) , please?
Reply: 5.2
